target: canine TRPM8 (Canis lupus familiaris, UniProt Q1A7N1); construct: expressed in transfected cells; assay: In Vitro Canine TRPM8 Functional Assay (Ca2+-sensitive fluorescent dye, icilin activation, FLIPR/FDSS); type: cell-based; conditions: HEK293 cells stably expressing canine TRPM8, icilin activation; eight-point dose-response
Sequence (Q1A7N1 1-1104): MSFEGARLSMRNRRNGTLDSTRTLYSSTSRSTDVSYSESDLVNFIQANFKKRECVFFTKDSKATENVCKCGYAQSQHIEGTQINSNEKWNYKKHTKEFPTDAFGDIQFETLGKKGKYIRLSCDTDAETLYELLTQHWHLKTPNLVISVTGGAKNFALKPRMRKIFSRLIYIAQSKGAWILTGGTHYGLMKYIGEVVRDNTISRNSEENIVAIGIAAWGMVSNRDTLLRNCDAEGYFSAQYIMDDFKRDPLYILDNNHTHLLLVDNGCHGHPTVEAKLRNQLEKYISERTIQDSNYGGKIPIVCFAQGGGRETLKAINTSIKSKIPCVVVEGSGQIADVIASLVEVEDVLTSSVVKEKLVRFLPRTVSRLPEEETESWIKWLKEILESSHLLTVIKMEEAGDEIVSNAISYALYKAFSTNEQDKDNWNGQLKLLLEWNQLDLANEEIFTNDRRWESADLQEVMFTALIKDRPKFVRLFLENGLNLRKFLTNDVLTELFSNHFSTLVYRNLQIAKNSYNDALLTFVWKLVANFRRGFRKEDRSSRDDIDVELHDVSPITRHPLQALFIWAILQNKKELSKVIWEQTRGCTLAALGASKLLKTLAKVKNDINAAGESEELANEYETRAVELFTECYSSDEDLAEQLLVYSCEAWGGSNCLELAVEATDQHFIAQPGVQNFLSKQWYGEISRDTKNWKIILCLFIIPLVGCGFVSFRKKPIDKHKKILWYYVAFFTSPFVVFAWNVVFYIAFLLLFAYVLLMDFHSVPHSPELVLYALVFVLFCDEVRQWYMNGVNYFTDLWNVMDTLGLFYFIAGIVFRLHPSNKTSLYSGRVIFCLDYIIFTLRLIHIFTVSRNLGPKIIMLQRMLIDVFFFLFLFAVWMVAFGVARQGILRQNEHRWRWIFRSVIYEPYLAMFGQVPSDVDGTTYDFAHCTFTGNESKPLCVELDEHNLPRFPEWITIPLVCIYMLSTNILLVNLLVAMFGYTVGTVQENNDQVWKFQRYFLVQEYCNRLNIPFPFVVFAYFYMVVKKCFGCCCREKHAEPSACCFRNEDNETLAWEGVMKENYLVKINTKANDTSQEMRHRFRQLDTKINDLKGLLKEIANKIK
Observation Type: IC50 (nM)
Dear colleague, please return just the value in nM, with no unit written.

Some solved entries appear below for comparison.
>  <Compound>
CC(C)OP(=O)(OC(C)C)C(Cc1ccc(F)c(Cl)c1)c1sc2ccccc2c1Br (centres unmarked)

>  <Value Units>
nM

>  <IC50>
21

$$$$
>  <Compound>
CCOP(=O)(OCC)C(Cc1ccc(F)c(C(F)(F)F)c1)c1sc2ccccc2c1Cl (centres unmarked) [Cpd 294]

>  <Value Units>
nM

>  <IC50>
118

$$$$
>  <Compound>
CCOP(=O)(OCC)C(Cc1cccc(SC(F)(F)F)c1)c1sc2ccccc2c1Cl (centres unmarked)

>  <Value Units>
nM

>  <IC50>
137

$$$$
>  <Compound>
CC(C)OP(=O)(OC(C)C)C(Cc1ccc(SC(F)(F)F)cc1)c1sc2ccccc2c1Cl (centres unmarked)

>  <Value Units>
nM

>  <IC50>
28

$$$$
>  <Compound>
CC(C)OP(=O)(OC(C)C)C(Cc1ccc(Cl)cc1)c1sc2ccccc2c1Br (centres unmarked)

>  <Value Units>
nM

>  <IC50>
65

$$$$
>  <Compound>
CC(=O)OCCOP(=O)(OCCOC(C)=O)C(Cc1ccc(F)c(F)c1)c1sc2ccccc2c1Br (centres unmarked)

>  <Value Units>
nM

>  <IC50>
202

$$$$

Consider the compound shown here: CCOP(=O)(OCC)C(Cc1cccc(C(F)(F)F)c1Cl)c1sc2ccccc2c1Cl (centres unmarked) What is its recorded IC50?
227

Consider the compound shown here: CCOP(=O)(OCC)C(Cc1ccc(SC(F)(F)F)cc1)c1sc2ccccc2c1Cl (centres unmarked) What is its recorded IC50?
125

====

Target: canine TRPM8 (Canis lupus familiaris)
Construct: expressed in transfected cells
Test: In Vitro Canine TRPM8 Functional Assay (Ca2+-sensitive fluorescent dye, icilin activation, FLIPR/FDSS)
Type: cell-based
Conditions: compound at 1 μM; HEK293 cells stably expressing canine TRPM8, icilin activation
Procedure: The functional activity of compounds of Formula (I) was determined by measuring changes in intracellular calcium concentration using a Ca^2+-sensitive fluorescent dye. The changes in fluorescent signal were monitored by a fluorescence plate reader, either a FLIPR™ (Molecular Devices) or FDSS (Hamamatsu). […] Basal FI was subtracted prior to normalizing data to percent of maximal response. […] Finally, the EC50 and IC50 values were calculated with the best-fit dose curve determined by GraphPad Prism.
Observation Type: % I (1 μM) (%)
Dear colleague, please return just the value in %, with no unit written.

Some solved entries appear below for comparison.
>  <Compound>
CCOP(=O)(OCC)C(Cc1cccc(C(F)(F)F)c1F)c1sc2ccccc2c1C (racemic)

>  <Observation Type>
% I (1 μM)

>  <Reported Value>
100

$$$$
>  <Compound>
CCOP(=O)(OCC)C(Cc1ccc(F)c(F)c1)c1sc2cc(F)ccc2c1C (stereo not drawn)

>  <Observation Type>
% I (1 μM)

>  <Reported Value>
100

$$$$
>  <Compound>
CCOP(=O)(OCC)C(Cc1cc(Cl)ccc1Cl)c1sc2ccccc2c1C (racemic)

>  <Observation Type>
% I (1 μM)

>  <Reported Value>
100

$$$$
>  <Compound>
CCOP(=O)(OCC)C(Cc1ccc(F)c(F)c1)c1sc2ccccc2c1Br (stereo not drawn)

>  <Observation Type>
% I (1 μM)

>  <Reported Value>
100

$$$$
>  <Compound>
CC(C)OP(=O)(OC(C)C)C(Cc1ccc(F)c(F)c1)c1sc2ccccc2c1C(C)C (racemic)

>  <Observation Type>
% I (1 μM)

>  <Reported Value>
100

$$$$

Consider the compound shown here: CCOP(=O)(Cc1cc2ccccc2s1)OCc1ccccc1F (stereo not drawn) What is its recorded % I (1 μM)?
17

Data provenance is patent US8558011B2.
